- Assay Summary: qHTS Validation assay for Inhibitors of Plasmodium falciparum Dd2 growth in vitro; also: nearly all actives have a fitted effect of over 70% in size
- Assay Conditions: P. falciparum Dd2 in RBCs, SYBR Green growth, 72 h; series mostly up to 28.7 µM
Out of some 4,100 compounds screened, about 1,600 (39%) were called active. Inconclusive results (about 25%) are left out. Calls follow the shape of the dose curve; as a rule, active = well fitted inhibition curve with a large enough effect; inconclusive = small, poorly fitted or top-dose-only effect; inactive = no such curve, though single readings can be large or run the other way. Some of the results follow.
Returns: one label drawn from T (active), F (inactive)

Challenge: # outcome recorded in this test, key = `CCN(CC)C(=O)Cn1c(=O)n(-c2ccc(Cl)cc2)c(=O)c2c3c(sc21)CCCCC3`
Response given: F

Challenge: Tell me the assay call for `CC(C)(C)c1ccc(-c2cc(C[C@H]3CNCC[C@H]3CC(=O)N3CCN(c4ccccn4)CC3)no2)cc1` please.
Response given: T

Challenge: Recorded call for `O=C(c1ccccc1-c1ccccc1)N1CCC(c2ncc[nH]2)CC1` ?
Response given: F

Challenge: What classification did `CCCN1CCN(C(=O)c2cc3c(s2)CCN(C(=O)c2ccc(F)cc2)C3)CC1` end up with in this test?
Response given: F

Challenge: Outcome logged for `COc1ccc(CNC(=O)C[C@@H]2CCNC[C@@H]2Cc2cc(-c3ccccc3)on2)cc1OC` in this assay:
Response given: F

Challenge: Any idea what this test logged for `N#Cc1ccc(CN2C[C@@H]3C(=O)N(CCN4CCc5ccccc5C4)C(=O)[C@@H]3C2)cc1` ?
Response given: F

Challenge: Dear all, I need the recorded test outcome for `CC(=O)N1CCN(C(=O)C[C@@H]2CCNC[C@@H]2Cc2cc(CSc3ccccc3)on2)CC1` , thank you.
Response given: F

Challenge: Recorded test outcome, item `CC(=O)c1sc2c(c1C)c(=O)n(-c1ccc(Cl)cc1)c(=O)n2Cc1cc(=O)n2cc(Cl)ccc2n1`
Response given: T

Challenge: Test call for this molecule, please: `O=C(C[C@@H]1CCNC[C@@H]1Cc1cc(CSc2ccccc2)on1)N1CCN(c2ccccc2)CC1`
Response given: T

###

- Assay Summary: qHTS Validation assay for Inhibitors of Plasmodium falciparum Dd2 growth in vitro; also: nearly all actives have a fitted effect of over 70% in size
- Assay Conditions: P. falciparum Dd2 in RBCs, SYBR Green growth, 72 h; series mostly up to 28.7 µM
About 1,600 (39%) of roughly 4,100 compounds were called active. About 25% were inconclusive and are not listed. Calls follow the shape of the dose curve; as a rule, active = well fitted inhibition curve with a large enough effect; inconclusive = small, poorly fitted or top-dose-only effect; inactive = no such curve, though single readings can be large or run the other way. The list shows a part of the results.
Choose one outcome from this list and give only that: active, inactive

Challenge: What did the test return for `COc1ccc(C)cc1N(C(=O)COc1cccc(F)c1)c1nc2ccccc2s1` ?
Response given: active

Challenge: Entry `Cc1nnc(-c2cc(Nc3cccc(N(C)C)c3)ccn2)n1Cc1ccccc1` : call = ?
Response given: inactive

Challenge: Hi, do you know how O=C(NCCN1CCCCCC1)C1CCCN1S(=O)(=O)c1cccc2nsnc12 (stereo not given) came out in this test?
Response given: inactive

Challenge: How did this test come out for `COc1cc(-c2nc(-c3ccccc3)c(-c3ccc(Br)cc3)[nH]2)cc(OC)c1O` ?
Response given: active

Challenge: In this assay, the call recorded for `CN(C)c1cccc(Nc2cc3c(cn2)CN(Cc2ccccc2)CCN3)c1` was what?
Response given: active

Challenge: Call for entry `COc1ccc(-c2nc3ccccc3s2)cc1NC(=O)c1cc2ccccc2o1` :
Response given: inactive

Challenge: // return assay outcome for `COc1cc(OC)cc(C(=O)Oc2c(CN3CCOCC3)cc(Cl)c3cccnc23)c1`
Response given: inactive

Challenge: Please share the test call associated with O=C(NCc1ccco1)C1CN(S(=O)(=O)c2ccccc2)CC12CCCCC2 (stereo not given) .
Response given: inactive

Challenge: Check the results log: what was the call for `O=C(Oc1c(CN2CCOCC2)cc(Cl)c2cccnc12)c1ccccc1Br` ?
Response given: active

Challenge: Tell me the assay call for `c1ccc(Nc2cc3c(cn2)CN(Cc2ccsc2)CCN3)cc1` please.
Response given: active
